target: CaM (Bos taurus, UniProt P62157); construct: made in house; host or cells: E. coli BL21 (DE3); test: Pull-down assay with immobilized protein and LSM libraries; assay type: binding, bovine; settings: H12 library; 1:2 stoichiometry assumed; read-out: Surface mapping KD (apparent)
Doc: threshold 200 µM (exclusive). Items with Kd beneath it return met; others return not met.

Previously resolved entries follow.
CSCC[C@@H](CC(=O)N[C@H]1CCC[C@@H]1C(=O)N[C@H]1CCC[C@@H]1C(N)=O)NC(=O)[C@H]1CCC[C@@H]1NC(=O)[C@H]1CCC[C@@H]1NC(=O)C[C@H](Cc1ccc(O)cc1)NC(=O)[C@H]1CCC[C@@H]1NC(=O)[C@H]1CCC[C@@H]1N [H12 YM]	met
CC(C)C[C@@H](CC(=O)N[C@H]1CCC[C@@H]1C(=O)N[C@H]1CCC[C@@H]1C(N)=O)NC(=O)[C@H]1CCC[C@@H]1NC(=O)[C@H]1CCC[C@@H]1NC(=O)C[C@H](CC(C)C)NC(=O)[C@H]1CCC[C@@H]1NC(=O)[C@H]1CCC[C@@H]1N [H12 LL]	met
CSCC[C@@H](CC(=O)N[C@H]1CCC[C@@H]1C(=O)N[C@H]1CCC[C@@H]1C(N)=O)NC(=O)[C@H]1CCC[C@@H]1NC(=O)[C@H]1CCC[C@@H]1NC(=O)C[C@H](CC(C)C)NC(=O)[C@H]1CCC[C@@H]1NC(=O)[C@H]1CCC[C@@H]1N [H12 LM]	not met
NC(=O)[C@H]1CCC[C@@H]1NC(=O)[C@H]1CCC[C@@H]1NC(=O)C[C@H](Cc1ccc(O)cc1)NC(=O)[C@H]1CCC[C@@H]1NC(=O)[C@H]1CCC[C@@H]1NC(=O)C[C@H](Cc1ccc(O)cc1)NC(=O)[C@H]1CCC[C@@H]1NC(=O)[C@H]1CCC[C@@H]1N [H12 YY]	not met
NCCCC[C@@H](CC(=O)N[C@H]1CCC[C@@H]1C(=O)N[C@H]1CCC[C@@H]1C(=O)N[C@H](CC(=O)N[C@H]1CCC[C@@H]1C(=O)N[C@H]1CCC[C@@H]1C(N)=O)Cc1c[nH]c2ccccc12)NC(=O)[C@H]1CCC[C@@H]1NC(=O)[C@H]1CCC[C@@H]1N [H12 KW]	met

## Input Lab note: Kd threshold 200 µM. Does this compound come in strictly under it? N=C(N)NCCC[C@@H](CC(=O)N[C@H]1CCC[C@@H]1C(=O)N[C@H]1CCC[C@@H]1C(N)=O)NC(=O)[C@H]1CCC[C@@H]1NC(=O)[C@H]1CCC[C@@H]1NC(=O)C[C@H](CCCNC(=N)N)NC(=O)[C@H]1CCC[C@@H]1NC(=O)[C@H]1CCC[C@@H]1N [H12 RR]
## Output met

## Input Please state whether Kd is below 200 µM for CC[C@H](C)[C@@H](CC(=O)N[C@H]1CCC[C@@H]1C(=O)N[C@H]1CCC[C@@H]1C(N)=O)NC(=O)[C@H]1CCC[C@@H]1NC(=O)[C@H]1CCC[C@@H]1NC(=O)C[C@H](CCSC)NC(=O)[C@H]1CCC[C@@H]1NC(=O)[C@H]1CCC[C@@H]1N [H12 MI]
## Output met

## Input Given the entry C[C@@H](CC(=O)N[C@H]1CCC[C@@H]1C(=O)N[C@H]1CCC[C@@H]1C(N)=O)NC(=O)[C@H]1CCC[C@@H]1NC(=O)[C@H]1CCC[C@@H]1NC(=O)C[C@H](CC(N)=O)NC(=O)[C@H]1CCC[C@@H]1NC(=O)[C@H]1CCC[C@@H]1N [H12 NA] , would its reported Kd be below 200 µM?
## Output not met

====

molecular target: S100B (Homo sapiens); construct: made in house; host or cells: Escherichia coli BL21(DE3); test: Pull-down assay with immobilized protein and LSM libraries; assay type: binding; details: H14 library; 1:1 binding assumed; read-out: Surface mapping KD (apparent)
attributeMeasured: Kd
I'd appreciate it if you included the unit after the number.

Examples from the recorded data:
NCCCC[C@@H](CC(=O)N[C@H]1CCCC[C@@H]1C(N)=O)NC(=O)[C@H]1CCCC[C@@H]1NC(=O)[C@H]1CCCC[C@@H]1NC(=O)C[C@H](CC(=O)O)NC(=O)[C@H]1CCCC[C@@H]1N	144 µM
N=C(N)NCCC[C@@H](CC(=O)N[C@H]1CCCC[C@@H]1C(=O)N[C@H]1CCCC[C@@H]1C(=O)N[C@@H](CCCCN)CC(=O)N[C@H]1CCCC[C@@H]1C(N)=O)NC(=O)[C@H]1CCCC[C@@H]1N	22 µM

Switching to the query record.
## Input Value lookup for Kd; key = CC(C)C[C@@H](CC(=O)N[C@H]1CCCC[C@@H]1C(N)=O)NC(=O)[C@H]1CCCC[C@@H]1NC(=O)[C@H]1CCCC[C@@H]1NC(=O)C[C@@H](NC(=O)[C@H]1CCCC[C@@H]1N)C(C)C
## Output 43 µM

====

Molecular target: S100B (Homo sapiens, UniProt P04271)
Construct: made in house; host or cells: Escherichia coli BL21(DE3)
Sequence (P04271 1-92): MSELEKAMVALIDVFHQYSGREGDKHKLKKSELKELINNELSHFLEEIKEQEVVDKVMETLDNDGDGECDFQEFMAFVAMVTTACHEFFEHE
Test: Pull-down assay with immobilized protein and LSM libraries
Format: binding
Settings: H14 library; 1:1 binding assumed; read-out: Surface mapping KD (apparent)
Entries and their Kd
Numeric only. Scale: µM

Use the examples below as a reference point.
CC[C@H](C)[C@@H](CC(=O)N[C@H]1CCCC[C@@H]1C(=O)N[C@H]1CCCC[C@@H]1C(=O)N[C@@H](C)CC(=O)N[C@H]1CCCC[C@@H]1C(N)=O)NC(=O)[C@H]1CCCC[C@@H]1N	108
CC[C@H](C)[C@@H](CC(=O)N[C@H]1CCCC[C@@H]1C(=O)N[C@H]1CCCC[C@@H]1C(=O)N[C@H](CC(=O)N[C@H]1CCCC[C@@H]1C(N)=O)Cc1ccc(O)cc1)NC(=O)[C@H]1CCCC[C@@H]1N	74
CSCC[C@@H](CC(=O)N[C@H]1CCCC[C@@H]1C(=O)N[C@H]1CCCC[C@@H]1C(=O)N[C@@H](CCCCN)CC(=O)N[C@H]1CCCC[C@@H]1C(N)=O)NC(=O)[C@H]1CCCC[C@@H]1N	125
CC[C@H](C)[C@@H](CC(=O)N[C@H]1CCCC[C@@H]1C(N)=O)NC(=O)[C@H]1CCCC[C@@H]1NC(=O)[C@H]1CCCC[C@@H]1NC(=O)C[C@H](CC(C)C)NC(=O)[C@H]1CCCC[C@@H]1N	19

Now examine the next entry.
## Input Tell me the measured Kd of CC(C)[C@@H](CC(=O)N[C@H]1CCCC[C@@H]1C(=O)N[C@H]1CCCC[C@@H]1C(=O)N[C@H](CC(=O)N[C@H]1CCCC[C@@H]1C(N)=O)Cc1ccccc1)NC(=O)[C@H]1CCCC[C@@H]1N , please.
## Output 20

====

biological target: Gal-1 (Homo sapiens, UniProt P09382); construct: made in house; host or cells: E. coli BL21(DE3); assay: Pull-down assay with immobilized protein and LSM libraries; assay type: binding; details: H12 library; 1:1 binding assumed; read-out: Surface mapping KD (apparent)
Sequence (P09382 whole entry): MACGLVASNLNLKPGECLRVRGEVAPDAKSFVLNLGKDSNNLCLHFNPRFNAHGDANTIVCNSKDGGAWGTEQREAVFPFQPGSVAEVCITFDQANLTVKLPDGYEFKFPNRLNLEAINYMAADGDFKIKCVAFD
attributeMeasured: Kd
Respond with a number, then the unit of measure.

CSCC[C@@H](CC(=O)N[C@H]1CCC[C@@H]1C(=O)N[C@H]1CCC[C@@H]1C(N)=O)NC(=O)[C@H]1CCC[C@@H]1NC(=O)[C@H]1CCC[C@@H]1NC(=O)C[C@@H](NC(=O)[C@H]1CCC[C@@H]1NC(=O)[C@H]1CCC[C@@H]1N)C(C)C	459 µM
CC(C)[C@@H](CC(=O)N[C@H]1CCC[C@@H]1C(=O)N[C@H]1CCC[C@@H]1C(N)=O)NC(=O)[C@H]1CCC[C@@H]1NC(=O)[C@H]1CCC[C@@H]1NC(=O)C[C@H](Cc1ccc(O)cc1)NC(=O)[C@H]1CCC[C@@H]1NC(=O)[C@H]1CCC[C@@H]1N	364 µM
N=C(N)NCCC[C@@H](CC(=O)N[C@H]1CCC[C@@H]1C(=O)N[C@H]1CCC[C@@H]1C(=O)N[C@@H](CO)CC(=O)N[C@H]1CCC[C@@H]1C(=O)N[C@H]1CCC[C@@H]1C(N)=O)NC(=O)[C@H]1CCC[C@@H]1NC(=O)[C@H]1CCC[C@@H]1N	242 µM

Turning to the following compound.
## Input Request the reported Kd associated with NCCCC[C@@H](CC(=O)N[C@H]1CCC[C@@H]1C(=O)N[C@H]1CCC[C@@H]1C(N)=O)NC(=O)[C@H]1CCC[C@@H]1NC(=O)[C@H]1CCC[C@@H]1NC(=O)C[C@H](Cc1ccc(O)cc1)NC(=O)[C@H]1CCC[C@@H]1NC(=O)[C@H]1CCC[C@@H]1N
## Output 371 µM
